Hello, the source for this data is ChEMBL document CHEMBL5143658, in case you need it.

Can you tell me IC50 at 48 h for the items I'm about to list?
- Experiment description: Cytotoxicity against mouse RAW264.7 cells assessed as inhibition of cell growth incubated for 48 hrs by MTT assay
- Assay type: toxicity, cell-based

[ask] What measured IC50 at 48 h goes with N=C(N)Nc1ccc(NC(=O)c2ccc(C(F)(F)F)cc2C(F)(F)F)cc1OCc1ccc(C(F)(F)F)cc1 ?
[reply] > 500 µM

[ask] For CN(c1ccc(NC(=O)c2cccc(C(=N)N)c2)cc1OCc1cccc(C(F)(F)F)c1)S(=O)(=O)Cc1ccccc1 then?
[reply] > 500 µM

[ask] For N=C(N)Nc1ccc(NC(=O)c2cc(C(F)(F)F)cc(C(F)(F)F)c2)cc1OCc1ccc(C(F)(F)F)cc1 then?
[reply] > 500 µM

[ask] For Cc1ccc(C)c(COc2cc(NC(=O)c3cc(C(F)(F)F)cc(C(F)(F)F)c3)ccc2NC(=N)N)c1 then?
[reply] > 500 µM

[ask] For CN(c1ccc(NC(=O)c2cccc(C(=N)N)c2)cc1OCc1ccc(C(=N)N)cc1)S(=O)(=O)Cc1ccccc1 then?
[reply] > 500 µM

[ask] For N=C(N)Nc1ccc(NC(=O)c2ccc(Cl)c(Cl)c2)cc1OCc1ccc(C(F)(F)F)cc1 then?
[reply] > 500 µM

[ask] For N=C(N)Nc1ccc(NC(=O)c2ccc3c(c2)OCO3)cc1OCc1ccc(C(F)(F)F)cc1 then?
[reply] 27.2 µM

[ask] For CCCCCCOc1cc(NC(=O)c2ccc3c(c2)OCO3)ccc1NC(=N)N then?
[reply] 460 µM

[ask] For CN(c1ccc(NC(=O)c2cccc(C(=N)N)c2)cc1OCc1ccc(C(F)(F)F)cc1)S(=O)(=O)C(F)(F)F then?
[reply] > 500 µM

[ask] For N=C(N)Nc1ccc(NC(=O)c2cc(C(F)(F)F)cc(C(F)(F)F)c2)cc1OCc1ccccc1C(F)(F)F then?
[reply] 481 µM

[ask] For COc1ccc(C(=O)Nc2ccc(NC(=N)N)c(OCc3cc(OC)ccc3OC)c2)cc1 then?
[reply] 190 µM

[ask] For COc1ccc(OC)c(COc2cc(NC(=O)c3ccc4c(c3)OCO4)ccc2NC(=N)N)c1 then?
[reply] > 500 µM

[ask] For N=C(N)Nc1ccc(NC(=O)c2ccc3c(c2)OCO3)cc1OCc1ccccc1C(F)(F)F then?
[reply] > 500 µM
